This collection of values is drawn from patent US20220409727A1.

system: human glioblastoma astrocytoma (U373) cells; assay: (Photo-)cytotoxicity on 2D cell monolayers, resazurin assay, U373; conditions: read-out: IC50 480 nm (10 min, 3.1 J/cm^2); U373, irradiation 480 nm (10 min, 3.1 J/cm^2); compounds 1-3 as chloride salts

{"columns": ["substanceSmiles", "IC50"],
 "data": [
  ["COc1ccc(/C=C/c2ccnc(-c3cc(/C=C/c4ccc(OC)cc4)ccn3)c2)cc1.F[P-](F)(F)(F)(F)F.F[P-](F)(F)(F)(F)F.[Ru+2].c1cnc2c(c1)ccc1cccnc12.c1cnc2c(c1)ccc1cccnc12", "2.5 µM"],
  ["CN(C)c1ccc(/C=C/c2ccnc(-c3cc(/C=C/c4ccc(N(C)C)cc4)ccn3)c2)cc1.F[P-](F)(F)(F)(F)F.F[P-](F)(F)(F)(F)F.[Ru+2].c1cnc2c(c1)ccc1cccnc12.c1cnc2c(c1)ccc1cccnc12", "11.7 µM"]
]}
